- experimental target: T1, tip-chimeric peptide IhfA5-mIhfB4NTHI (nontypeable Haemophilus influenzae …)
- T1 construct: also called IHF(NTHI) tip chimeric peptide; IHFNTHI tip chimeric peptide
- T1 peptide: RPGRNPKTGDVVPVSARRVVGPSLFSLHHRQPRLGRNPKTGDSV
- procedure summary: SPR Biacore 3000, HuMab immobilized, peptide as analyte
assay endpoint: Kd (nM)
Numbers only, in nM.

binder	Kd (nM)
humanized anti-tip monoclonal antibody, heavy chain SEQ ID NO: 1 and light chain SEQ ID NO: 7 (antibody, V domains shown, also called HuTipMab; TP-21949) VH: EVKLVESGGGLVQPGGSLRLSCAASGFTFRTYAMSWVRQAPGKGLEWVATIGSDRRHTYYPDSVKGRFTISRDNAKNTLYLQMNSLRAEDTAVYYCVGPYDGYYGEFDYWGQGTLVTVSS VL: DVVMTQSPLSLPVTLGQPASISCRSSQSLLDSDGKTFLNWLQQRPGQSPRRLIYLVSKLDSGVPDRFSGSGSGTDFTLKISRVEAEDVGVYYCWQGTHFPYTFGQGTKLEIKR	76
humanized anti-tip monoclonal antibody, heavy chain SEQ ID NO: 2 and light chain SEQ ID NO: 7 (antibody, V domains shown, also called H10211 (1F8.F1 Humanized HC2) + L10210 (1F8.F1 Humanized LC1)) VH: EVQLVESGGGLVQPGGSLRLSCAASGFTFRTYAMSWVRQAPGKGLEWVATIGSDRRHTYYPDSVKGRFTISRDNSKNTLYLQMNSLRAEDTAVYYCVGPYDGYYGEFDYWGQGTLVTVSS VL: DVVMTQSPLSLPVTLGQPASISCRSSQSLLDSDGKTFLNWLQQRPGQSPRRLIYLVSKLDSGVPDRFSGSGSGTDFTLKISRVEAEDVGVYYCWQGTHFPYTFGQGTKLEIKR	527
humanized anti-tip monoclonal antibody, heavy chain SEQ ID NO: 1 and light chain SEQ ID NO: 8 (antibody, V domains shown, also called H10210 (1F8.F1 Humanized HC1) + L10211 (1F8.F1 Humanized LC2)) VH: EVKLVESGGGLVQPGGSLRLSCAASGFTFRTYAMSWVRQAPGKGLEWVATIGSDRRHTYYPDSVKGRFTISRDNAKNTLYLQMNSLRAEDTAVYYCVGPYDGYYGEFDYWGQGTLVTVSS VL: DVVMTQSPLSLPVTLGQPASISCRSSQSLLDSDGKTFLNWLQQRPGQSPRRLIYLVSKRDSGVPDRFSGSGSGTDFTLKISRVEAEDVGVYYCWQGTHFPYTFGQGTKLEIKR	21
humanized anti-tip monoclonal antibody, heavy chain SEQ ID NO: 2 and light chain SEQ ID NO: 9 (antibody, V domains shown, also called H10211 (1F8.F1 Humanized HC2) + L10212 (1F8.F1 Humanized LC3)) VH: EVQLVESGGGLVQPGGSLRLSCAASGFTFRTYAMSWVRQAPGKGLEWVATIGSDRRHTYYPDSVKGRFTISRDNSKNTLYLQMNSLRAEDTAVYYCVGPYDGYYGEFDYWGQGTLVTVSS VL: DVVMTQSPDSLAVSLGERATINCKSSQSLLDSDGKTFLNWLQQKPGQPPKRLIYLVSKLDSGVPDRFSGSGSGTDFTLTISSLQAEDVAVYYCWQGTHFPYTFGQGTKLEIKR	23

Find the recorded Kd belonging to humanized anti-tip monoclonal antibody, heavy chain SEQ ID NO: 2 and light chain SEQ ID NO: 8 (antibody, V domains shown, also called H10211 (1F8.F1 Humanized HC2) + L10211 (1F8.F1 Humanized LC2)) VH: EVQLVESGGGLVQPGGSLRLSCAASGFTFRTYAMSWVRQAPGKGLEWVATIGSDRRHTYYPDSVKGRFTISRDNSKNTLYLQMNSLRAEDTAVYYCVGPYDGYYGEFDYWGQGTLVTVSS VL: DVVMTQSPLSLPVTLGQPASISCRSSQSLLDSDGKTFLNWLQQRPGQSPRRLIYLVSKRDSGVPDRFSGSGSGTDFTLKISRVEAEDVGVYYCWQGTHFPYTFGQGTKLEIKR and report it.
257
